- study-target: T1, HLA-B*08:01 (human)
- T1 construct: MHC monomer first loaded with a UV-sensitive peptide that is cleaved by UV light and exchanged for the test peptide
- method: UV peptide exchange ELISA
assay-readout: peptide exchange yield

Before answering, review these 7 worked examples.
TQKSVQVL [TQKSVQVL (SEQ ID NO: 149)]; 20 to 50%
RAIEHVLQV [RAIEHVLQV (SEQ ID NO: 194)]; 50 to 75%
IPRLAVISI [IPRLAVISI (SEQ ID NO: 178)]; 20 to 50%
WIGLRNLDL [WIGLRNLDL (SEQ ID NO: 33)]; 50 to 75%
EPVNTNVVL [EPVNTNVVL (SEQ ID NO: 98)]; 20 to 50%
HAMDGASHL [HAMDGASHL (SEQ ID NO: 147)]; 20 to 50%
APDNVLLTL [APDNVLLTL (SEQ ID NO: 189)]; 20 to 50%

Please list peptide exchange yield recorded for the binder AQRSEMVTL [AQRSEMVTL (SEQ ID NO: 120)] 20 to 50%
